Cited source: the supplement of paper PMC9112550

tested on: Escherichia coli TOP10; assay: shrunken log2 fold change of peptide-encoding DNA abundance (4.5 h post-induction vs induction); higher = less antimicrobial activity (less host growth inhibition); details: time post-induction: 4.5 h; library: site-saturation at positions 5, 18, 19, 20;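 further: peptides expressed intracellularly from a pBAD plasmid library in pooled LB shake-flask culture, induced with 0.3% L-arabinose, DNA abundance read by NGS, three biological replicates, DESeq2 with apeglm shrinkage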
measured.parameter: shrunken log2 fold change
Answer with a number only.

Below, each entry is followed by its recorded shrunken log2 fold change result.
RRIRDRPPRLPRPRPRPHMCPRP | 0.0514
RRIRNRPPRLPRPRPRPISMPRP | -0.0881
RRIRERPPRLPRPRPRPIVFPRP | 0.0592

Record summary for `RRIRVRPPRLPRPRPRPEIMPRP` : reported shrunken log2 fold change = -0.194
